# experimental-target: Isoenzym Carboanhydrase II (Homo sapiens)

{"columns": ["compound", "reading-unit", "Ki"],
 "data": [
  ["NS(=O)(=O)c1ccc(CNC(=S)Nc2ccc(OC3OC(CO)C(O)C(O)C3O)cc2)cc1 (stereo not shown)", "µM", 0.8]
]}
